# target.system: T1, human PACAP27 (human, C-terminal leucine is amidated; 125I-labelled in Example 10)
# T1 peptide: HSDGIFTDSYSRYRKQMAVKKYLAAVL
# experiment.summary: SPR, Ab immobilised
parameter.measured: kon (M⁻¹ s⁻¹)
State just the number; it will be interpreted in M⁻¹ s⁻¹.

[
  {
    "binder": "anti-PACAP antibody Ab9.H (antibody, human IgG1, kappa, N297A, V domains shown, humanized form of Ab9, full length) VH: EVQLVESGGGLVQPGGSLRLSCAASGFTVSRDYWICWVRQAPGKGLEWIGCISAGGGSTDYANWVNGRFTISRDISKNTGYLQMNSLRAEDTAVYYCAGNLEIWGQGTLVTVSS VL: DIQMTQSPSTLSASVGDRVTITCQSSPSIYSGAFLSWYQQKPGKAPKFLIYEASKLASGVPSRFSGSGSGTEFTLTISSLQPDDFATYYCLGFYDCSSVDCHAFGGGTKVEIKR",
    "unit.descriptor": "M⁻¹ s⁻¹",
    "kon": 620000
  }
]

What measured kon goes with anti-PACAP antibody Ab5 (antibody, human IgG1, kappa, N297A, V domains shown, full-length rabbit/human chimeric antibody) VH: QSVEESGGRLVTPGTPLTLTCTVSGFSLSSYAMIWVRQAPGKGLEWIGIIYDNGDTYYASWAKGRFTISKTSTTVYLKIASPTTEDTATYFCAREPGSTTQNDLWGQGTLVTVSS VL: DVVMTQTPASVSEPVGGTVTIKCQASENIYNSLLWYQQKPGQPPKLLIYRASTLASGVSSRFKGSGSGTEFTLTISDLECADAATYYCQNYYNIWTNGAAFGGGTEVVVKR ? 250000
